- Test: NCI Yeast Anticancer Drug Screen. Data for the mec2-1 strain (AID 157)
- Test Context: S. cerevisiae mec2-1 strain, at 50.0 µM, stronger effect = higher value
The panel holds about 79,000 compounds, 15% with a hit somewhere; the sample as a whole holds those more often.
growth inhibition overview
Value Type: growth inhibition (%)

# Compound, Value Type, Recorded Value
records = [
    ("O=C(CCn1ccnc1[N+](=O)[O-])NCCCn1ccnc1[N+](=O)[O-]", "growth inhibition", -2.15),
    ("O=[N+]([O-])c1ccc(/C=C/[P+](c2ccccc2)(c2ccccc2)c2ccccc2)o1", "growth inhibition", 97.5),
    ("CCCCCCCCCCCCCCCCCCOCCCCCC", "growth inhibition", -30.1),
    ("CN1C(=O)NC(C)(CCOCc2ccccc2)C1=O (centres undefined)", "growth inhibition", 0.45),
    ("O=[N+]([O-])c1ccc(S(=O)(=O)c2ccc(N=Cc3ccc(C=Nc4ccc(S(=O)(=O)c5ccc([N+](=O)[O-])cc5)cc4)cc3)cc2)cc1", "growth inhibition", 3.25),
    ("Cc1ccc(N=Cc2ccccc2O)cc1.[Co]", "growth inhibition", 14.9),
    ("CC(C)(C)N1COCC(COc2ccc(Cl)cc2)OC1 (centres undefined)", "growth inhibition", -3.5),
    ("O=C(O)C1CCCN1Cc1ccc2c(c1)OCO2 (centres undefined)", "growth inhibition", -19.6),
    ("CC1CN(c2ccc(Cl)cc2)CC(C)OC(=O)O1 (centres undefined)", "growth inhibition", -5.75),
    ("COC(=O)CCCc1c[nH]c2ccccc12", "growth inhibition", -9.8),
    ("CCN(CC)CC(O)Cn1cnc2c(=S)nc[nH]c21 (centres undefined)", "growth inhibition", -4.05),
    ("O=C(O)c1cccc(F)c1C(=O)O", "growth inhibition", -3.65),
    ("COc1cc(C(c2cc3c(cc2O)OCO3)n2ccnc2)cc(OC)c1OC (centres undefined)", "growth inhibition", 1.6),
    ("CCOC(=O)C1=[N+]([O-])OC2=C(O)CCCC21 (centres undefined)", "growth inhibition", 2.25),
    ("NN1CCCC(O)C1 (centres undefined)", "growth inhibition", -18.4),
    ("COc1ccccc1NC(=O)/C(=C\\n1c(=S)[nH]c2ccc([N+](=O)[O-])cc21)C(C)=O", "growth inhibition", -10.4),
    ("COc1cc2oc3cc(OC)c(OC)c(CC=C(C)C)c3c(=O)c2c(O)c1CC=C(C)C", "growth inhibition", -30.6),
    ("CCCCCC[N+]12CC=C3COC(=O)C(C)(O)C(C)(O)C(C)C(=O)OC(CC1)C32 (centres undefined)", "growth inhibition", -6.15),
    ("O=C(NCCCCC(Br)C(=O)O)c1ccccc1 (centres undefined)", "growth inhibition", -5.5),
    ("O=C(O)C1CCN(C(=O)Cc2c3ccccc3cc3ccccc23)CC1", "growth inhibition", 3.9),
    ("CC1CC[P+](C)(c2ccccc2)c2ccccc21 (centres undefined)", "growth inhibition", 15.7),
    ("CCOC(=O)c1cnc2ccccc2c1", "growth inhibition", 6.8),
    ("CCOC(=O)NC(S(=O)(=O)O)S(=O)(=O)O", "growth inhibition", 9.8),
    ("CC(C)(CO)C(O)C(=O)NCCO (centres undefined)", "growth inhibition", -0.15),
]
